- Test system: corn (Zea mays L.)
- assay-overview: Test Example 1: foliar treatment, growth inhibition rate on 14th day
- Assay type: in vivo
- condition: active ingredient amount 31 g/ha, 14th day after application, visual, 0 = non-treated, 100 = complete kill
Reported Growth inhibition rate (%) Corn by item:
# unit: % | format: bare number

Before answering, review these 3 worked examples.
smiles-data: Cc1ccc(Oc2cnc3cc(Cl)ccc3n2)cc1-c1c(OC(=O)Cc2ccccc2)c(C)nn(C)c1=O
readout-kind: Growth inhibition rate (%) Corn
result-number: 40
//
smiles-data: C=CC(=O)Oc1c(C)nn(C)c(=O)c1-c1cc(Oc2cnc3cc(Cl)ccc3n2)ccc1C
readout-kind: Growth inhibition rate (%) Corn
result-number: 45
//
smiles-data: Cc1ccc(Oc2cnc3cc(Cl)ccc3n2)cc1-c1c(OC(=O)CC2CCCCC2)c(C)nn(C)c1=O
readout-kind: Growth inhibition rate (%) Corn
result-number: 25

Let us examine a further case.
May I ask what Growth inhibition rate (%) Corn has been recorded for Cc1ccc(Oc2cnc3cc(Cl)ccc3n2)cc1-c1c(OCC#N)c(C)nn(C)c1=O ?
0

###

- System: rice (Oryza sativa L.)
- assay-overview: Test Example 1: foliar treatment, growth inhibition rate on 14th day
- Assay type: in vivo
- condition: active ingredient amount 31 g/ha, 14th day after application, visual, 0 = non-treated, 100 = complete kill
readout-kind: Growth inhibition rate (%) Rice
# unit: % | format: bare number

Before answering, review these 3 worked examples.
compound: C#CCOC(=O)Oc1c(C)nn(C)c(=O)c1-c1cc(Oc2cnc3cc(Cl)ccc3n2)ccc1C
target-or-system: rice (Oryza sativa L.)
result-number: 0

compound: Cc1ccc(Oc2cnc3cc(Cl)ccc3n2)cc1-c1c(OCC#N)c(C)nn(C)c1=O
target-or-system: rice (Oryza sativa L.)
result-number: 0

compound: COCCOC(=O)Oc1c(C)nn(C)c(=O)c1-c1cc(Oc2cnc3cc(Cl)ccc3n2)ccc1C
target-or-system: rice (Oryza sativa L.)
result-number: 90

Param readout = Growth inhibition rate (%) Rice; param system = rice (Oryza sativa L.); param query = COC(=O)CCC(=O)Oc1c(C)nn(C)c(=O)c1-c1cc(Oc2cnc3cc(Cl)ccc3n2)ccc1C ; response: value
98

Param readout = Growth inhibition rate (%) Rice; param system = rice (Oryza sativa L.); param query = Cc1ccc(Oc2cnc3cc(Cl)ccc3n2)cc1-c1c(OC(=O)N(C)c2ccccc2)c(C)nn(C)c1=O ; response: value
0

Param readout = Growth inhibition rate (%) Rice; param system = rice (Oryza sativa L.); param query = Cc1ccc(Oc2cnc3cc(Cl)ccc3n2)cc1-c1c(OC(=O)N(C)C)c(C)nn(C)c1=O ; response: value
0

Param readout = Growth inhibition rate (%) Rice; param system = rice (Oryza sativa L.); param query = Cc1ccc(Oc2cnc3cc(Cl)ccc3n2)cc1-c1c(OC(=S)Oc2ccccc2)c(C)nn(C)c1=O ; response: value
0

Param readout = Growth inhibition rate (%) Rice; param system = rice (Oryza sativa L.); param query = Cc1ccc(Oc2cnc3cc(Cl)ccc3n2)cc1-c1c(OC(=S)N(C)C)c(C)nn(C)c1=O ; response: value
40

Param readout = Growth inhibition rate (%) Rice; param system = rice (Oryza sativa L.); param query = Cc1ccc(Oc2cnc3cc(Cl)ccc3n2)cc1-c1c(OC(=O)OCCCl)c(C)nn(C)c1=O ; response: value
0

###

Reported Growth inhibition rate (%) Barnyardgrass by item:
- System: barnyardgrass (Echinochloa crus-qalli L.)
- assay-overview: Test Example 1: foliar treatment, growth inhibition rate on 14th day
- Type: in vivo
- condition: active ingredient amount 31 g/ha, 14th day after application

Before answering, review these 5 worked examples.
smiles-data: CCOC(=O)Oc1c(C)nn(C)c(=O)c1-c1cc(Oc2ncc(C(F)(F)F)cc2Cl)ccc1C
target-or-system: barnyardgrass (Echinochloa crus-qalli L.)
Growth inhibition rate (%) Barnyardgrass: 100%

smiles-data: CC(=O)Oc1cnn(C(C)C)c(=O)c1-c1cc(Oc2nc3ccc(Cl)cc3o2)ccc1C
target-or-system: barnyardgrass (Echinochloa crus-qalli L.)
Growth inhibition rate (%) Barnyardgrass: 100%

smiles-data: Cc1cc(C)c(-c2c(O)c(C)nn(C)c2=O)cc1Oc1ncc(C(F)(F)F)cc1Cl
target-or-system: barnyardgrass (Echinochloa crus-qalli L.)
Growth inhibition rate (%) Barnyardgrass: 98%

smiles-data: COc1ccc2nc(Oc3ccc(C)c(-c4c(OC(C)=O)c(C)nn(C)c4=O)c3)sc2c1
target-or-system: barnyardgrass (Echinochloa crus-qalli L.)
Growth inhibition rate (%) Barnyardgrass: 80%

smiles-data: Cc1ccc(Oc2nc3ccc(Cl)cc3o2)cc1-c1c(O)cnn(C(C)C)c1=O
target-or-system: barnyardgrass (Echinochloa crus-qalli L.)
Growth inhibition rate (%) Barnyardgrass: 99%

Let us examine a further case.
May I ask what Growth inhibition rate (%) Barnyardgrass has been recorded for CCc1ccc(Oc2nc3ccc(Cl)cc3o2)cc1-c1c(OC(C)=O)cnn(C)c1=O ?
100%
